Values compiled from ChEMBL document CHEMBL1201862.

# System: RXF 393
# assay: NCI tumour cell line growth inhibition, 48 h
Activity calls are given as the source filed them. Cut-off read from the data, not from the text of the source: active = GI50 up to about 1.1 µM and inactive = higher.
Return exactly one item of true (1) = active, false (0) = inactive

Answered cases to consult:
compound=Cc1nccc2c1cnc1ccnn12 category_label="false (0)"
compound=CCOC(=O)CN1C(=O)c2cc([N+](=O)[O-])cc3cc([N+](=O)[O-])cc(c23)C1=O category_label="false (0)"
compound="O=C(O)C(F)(OC(F)(F)C(F)(F)C(F)(F)F)C(F)(F)F (stereo not given)" category_label="false (0)"
compound="Cc1ccc(-n2c(Cn3nnc(-c4cccnc4)n3)nn(C3OC(COC(=O)c4ccccc4)C(OC(=O)c4ccccc4)C3OC(=O)c3ccccc3)c2=S)cc1 (stereo not given)" category_label="false (0)"
compound=O=C1C(=CNC(=S)c2ccccc2)C(=O)c2ccccc21 category_label="false (0)"

Input line: Which result was noted for this compound in the test: `COc1c(Br)cc(/C=C(\C#N)c2ccccn2)cc1Br`
Output line: false (0)

Input line: Query C=C(Nc1nc2ccc(C)cc2s1)C(=O)C(CC)C(=O)C(CC)CC1C(=O)NC(=O)NC1=O (stereo not given) next
Output line: false (0)

Input line: Would you mind doing COc1ccc(C(c2cc3c(cc2O)OCO3)N2CCOCC2)cc1OC (stereo not given) as well?
Output line: false (0)

Input line: Field entry: COC(=O)C1=C(c2cc(OC)c(OC)c(OC)c2)OC(c2ccc3c(c2)OCO3)C1 (stereo not given)
Output line: false (0)

Input line: Moving on to C=C(Cl)C(C)(Cl)CCC(Br)C(C)(C)Cl (stereo not given)
Output line: false (0)

Input line: Same again, this time with `COC(=O)c1nc(-c2ccc(Cl)c(Cl)c2)nc2ccc(Cl)cc12`
Output line: false (0)

Input line: Then what about the compound CC(=O)OCC1OC(n2c(-c3ccc(N)cc3)cc(-c3ccco3)c(C#N)c2=O)C(OC(C)=O)C(OC(C)=O)C1OC(C)=O (stereo not given) ?
Output line: false (0)

Input line: COc1ccc(C(=O)C(c2ccc(OC)cc2)C2(O)C(=O)Nc3c2ccc(Cl)c3C)cc1 (stereo not given) ?
Output line: false (0)

Input line: Queued: `COc1ccc(OC)c(NC(=O)C(=O)CC(=O)c2sc(-n3nc(-c4ccccc4)cc3-c3ccccc3)nc2C)c1`
Output line: false (0)

Input line: Another compound: `O=C1Nc2ccccc2/C1=N/N1C(=O)/C(=C/c2ccccc2S)N=C1c1ccccc1`
Output line: false (0)

Input line: And what about the compound C=C1CC(OC)(C(O)C(=O)N[C@H]2OCO[C@H]3C2O[C@H](C[C@@H](CO)OC)C(C)(C)C3OC)O[C@H](C)[C@@H]1C (stereo not given in full) ?
Output line: true (1)

Input line: And the next one, `OCCCc1cnco1` ?
Output line: false (0)

Input line: What do you get for COc1ccc2c(c1OC(C)=O)C1=CC(=O)CCC13CCNC3C2 (stereo not given) ?
Output line: false (0)

Input line: Another compound to look at: `Cc1c(F)c(NC(=O)CN(C)C)c2c(=O)cc(-c3ccc(NC(=O)CN(C)C)c(F)c3)oc2c1F`
Output line: false (0)

Input line: Then `CC1(C)OB(O)OC1(C)C` ?
Output line: false (0)

----------
# Tested on: UACC-257
# assay: NCI tumour cell line growth inhibition, 48 h
The source made the active and inactive calls. Rule as the data show it: active = GI50 up to about 1.1 µM and inactive = higher.
GI50 overview

Previously resolved entries follow.
compound=CC1=[N+](C)CCN1C reported_endpoint=GI50 reading="> 100 µM (inactive)"
compound="C/C=C/C=C/C1=NN(c2cccc(S(=O)(=O)O)c2)C2(C1)SCC(=O)N2c1nc2ccccc2s1 (stereo unspecified)" reported_endpoint=GI50 reading="> 100 µM (inactive)"
compound=CN(c1ccccc1)c1c(-c2ccccc2)c(=O)oc2c1ccc1occc12 reported_endpoint=GI50 reading="> 100 µM (inactive)"

Input line: What value of GI50 has been reported for the following compound? NC(c1ccccc1)(C(F)(F)F)P1(=O)OC(=O)c2ccccc2O1 (stereo unspecified)
Output line: > 100 µM (inactive)

Input line: What about this compound? `CCO/N=C(/CC)c1ccc(Br)s1`
Output line: > 100 µM (inactive)

Input line: How about `CCN(CC)CC/N=c1\c2cc(OC)ccc2[nH]c2c([N+](=O)[O-])ccc(NCCN(CC)CC)c12` ?
Output line: 4.17 µM (inactive)
